Values were extracted from patent US20250074980A1.

# measurement.target: T1, His-tagged CEACAM1 (human, UniProt P13688 35-428)
# T1 construct: 45 kDa SPR analyte; also called CEACAM1-HIS; CEACAM1 analyte
# T1 sequence: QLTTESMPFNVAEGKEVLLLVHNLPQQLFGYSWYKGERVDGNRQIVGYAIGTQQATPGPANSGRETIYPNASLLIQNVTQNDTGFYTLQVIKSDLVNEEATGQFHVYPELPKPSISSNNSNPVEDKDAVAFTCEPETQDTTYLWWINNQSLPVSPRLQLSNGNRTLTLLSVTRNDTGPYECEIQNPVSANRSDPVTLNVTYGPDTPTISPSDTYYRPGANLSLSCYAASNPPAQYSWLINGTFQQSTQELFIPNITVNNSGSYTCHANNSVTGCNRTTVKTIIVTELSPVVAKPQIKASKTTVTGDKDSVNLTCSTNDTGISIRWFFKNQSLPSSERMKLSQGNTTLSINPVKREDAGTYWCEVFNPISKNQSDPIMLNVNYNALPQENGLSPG
# protocol.notes: SPR single-cycle, supernatant IgG captured
measurement.name: Kd (nM)
A number alone suffices; assume nM.

Before answering, review these 3 worked examples.
>  <binder>
CP08H03/Vκ8 S29A (antibody, IgG4, V domains shown, IgG4 (S241P), kappa; also called CP08_H03/Parent VL; CP08_H03/Parental) VH: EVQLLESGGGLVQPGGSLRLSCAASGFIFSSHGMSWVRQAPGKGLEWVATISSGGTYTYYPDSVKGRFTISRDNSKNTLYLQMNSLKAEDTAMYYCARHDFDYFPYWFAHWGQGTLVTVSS VL: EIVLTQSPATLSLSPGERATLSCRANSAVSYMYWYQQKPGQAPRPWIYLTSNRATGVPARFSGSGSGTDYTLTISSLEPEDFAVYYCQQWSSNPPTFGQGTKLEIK

>  <Kd (nM)>
130

$$$$
>  <binder>
CP09B03/CP08E05 (antibody, IgG4, V domains shown, IgG4 (S241P), kappa) VH: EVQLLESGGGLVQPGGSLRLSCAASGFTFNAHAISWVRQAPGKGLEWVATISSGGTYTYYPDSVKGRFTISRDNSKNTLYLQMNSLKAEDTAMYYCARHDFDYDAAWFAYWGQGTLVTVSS VL: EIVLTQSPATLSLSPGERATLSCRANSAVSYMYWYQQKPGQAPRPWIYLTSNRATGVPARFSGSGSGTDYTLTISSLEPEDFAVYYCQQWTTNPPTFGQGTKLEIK

>  <Kd (nM)>
97

$$$$
>  <binder>
CP09B03/CP08D02 (antibody, IgG4, V domains shown, IgG4 (S241P), kappa) VH: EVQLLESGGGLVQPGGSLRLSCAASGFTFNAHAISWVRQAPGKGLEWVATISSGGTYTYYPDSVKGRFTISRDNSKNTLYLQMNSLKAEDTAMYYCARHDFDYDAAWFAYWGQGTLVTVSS VL: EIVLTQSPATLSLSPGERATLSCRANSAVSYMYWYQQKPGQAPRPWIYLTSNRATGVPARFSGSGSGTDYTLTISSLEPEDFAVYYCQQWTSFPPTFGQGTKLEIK

>  <Kd (nM)>
290

$$$$

[in] Which Kd is listed for CP09C02/CP08E01 (antibody, IgG4, V domains shown, IgG4 (S241P), kappa) VH: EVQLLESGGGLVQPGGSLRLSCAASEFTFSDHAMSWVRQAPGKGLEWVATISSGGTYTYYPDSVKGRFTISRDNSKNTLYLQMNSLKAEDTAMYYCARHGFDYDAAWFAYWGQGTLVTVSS VL: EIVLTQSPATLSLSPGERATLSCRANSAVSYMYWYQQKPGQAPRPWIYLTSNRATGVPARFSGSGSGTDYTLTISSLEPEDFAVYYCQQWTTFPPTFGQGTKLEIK ?
[out] 140

[in] Which Kd is listed for CP09C02/CP08D02 (antibody, IgG4, V domains shown, IgG4 (S241P), kappa) VH: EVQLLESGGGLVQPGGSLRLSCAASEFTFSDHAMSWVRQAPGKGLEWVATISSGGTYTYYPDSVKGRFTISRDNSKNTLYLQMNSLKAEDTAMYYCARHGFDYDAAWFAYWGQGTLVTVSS VL: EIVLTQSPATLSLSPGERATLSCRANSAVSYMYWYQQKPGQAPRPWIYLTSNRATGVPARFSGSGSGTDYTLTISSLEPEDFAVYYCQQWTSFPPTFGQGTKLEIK ?
[out] 140

[in] Which Kd is listed for CP09C02/Vκ8 S29A (antibody, IgG4, V domains shown, IgG4 (S241P), kappa) VH: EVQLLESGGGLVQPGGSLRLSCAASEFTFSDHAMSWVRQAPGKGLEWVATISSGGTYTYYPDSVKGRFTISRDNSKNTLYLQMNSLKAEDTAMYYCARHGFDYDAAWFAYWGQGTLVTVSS VL: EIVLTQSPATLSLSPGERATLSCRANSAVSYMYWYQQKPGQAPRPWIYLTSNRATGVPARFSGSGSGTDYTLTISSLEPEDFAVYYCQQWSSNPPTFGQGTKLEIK ?
[out] 170

[in] Which Kd is listed for VH1/CP08D02 (antibody, IgG4, V domains shown, IgG4 (S241P), kappa; also called Parent VH/CP08D02) VH: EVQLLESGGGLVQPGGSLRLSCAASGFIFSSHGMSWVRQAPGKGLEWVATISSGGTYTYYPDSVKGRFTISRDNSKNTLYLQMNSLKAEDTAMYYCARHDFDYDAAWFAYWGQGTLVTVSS VL: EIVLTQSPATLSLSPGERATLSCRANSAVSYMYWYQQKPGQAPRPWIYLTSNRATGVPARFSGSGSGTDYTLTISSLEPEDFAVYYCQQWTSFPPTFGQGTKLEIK ?
[out] 450
